- TARGET UNDER TEST: BCL6 (Homo sapiens (Human), UniProt P41182)
- PROTOCOL TEXT: Immunofluorescence high content imaging of BCL6 degradation in T47D cells
- Type: cell-based
- CONDITION PARAMETERS: T47D cells
REPORTED METRIC: IC50

COMPOUND	REPORTED METRIC	READOUT VALUE
CNC(=O)COc1cc2cc(Nc3nc(N4CCC(OC5CC6(C5)CN(c5cccc7c5CN(C5CCC(=O)NC5=O)C7=O)C6)CC4)ncc3Cl)ccc2n(C(C)C)c1=O (centres unmarked)	IC50	10 to 50 nM
CNC(=O)COc1cc2cc(Nc3nc(N4CCC(CN5[C@H](C)CN(c6cccc7c6C(=O)N(C6CCC(=O)NC6=O)C7=O)C[C@@H]5C)CC4)ncc3Cl)ccc2n(C(C)C)c1=O (mixture of isomers)	IC50	< 10 nM
CNC(=O)COc1cc2cc(Nc3nc(N4CCC(OC5CC6(CCN(c7cccc8c7C(=O)N(C7CCC(=O)NC7=O)C8=O)CC6)C5)CC4)ncc3Cl)ccc2n(C(C)C)c1=O (centres unmarked)	IC50	< 10 nM
CNC(=O)COc1cc2cc(Nc3nc(N4C[C@@H](COc5ccc6c(c5)C(=O)N(C5CCC(=O)NC5=O)C6=O)O[C@H](C)C4)ncc3Cl)ccc2n(C(C)C)c1=O (some centres unmarked)	IC50	50 to 100 nM
CN1C(=O)CCc2cc(Nc3nc(N4CCN(CC5CCN(c6cccc7c6C(=O)N(C6CCC(=O)NC6=O)C7=O)CC5)CC4)ncc3Cl)ccc21 (centres unmarked)	IC50	≥ 100 nM

====

EC50 overview
- TARGET UNDER TEST: UniProt P41182
- PROTOCOL TEXT: BCL6 TR-FRET assay (BCL6-Avitag-Biotin / BCoR-Cy5 peptide)
- Format: binding
- Method: Protein Synthesis. BCL6 protein was expressed by transforming Invitrogen One Shot cells with GS63525 pET24a-His-SUMO-TEV-BCLm-Avitag plasmid following manufacturer's instructions. In addition, biotin at a final concentration of 50 μM, and IPTG at a final concentration of 1 mM was added to the culture and incubated at room temperature shaking overnight. […] Mix 14 mls of BCoR-Cy5 [300 nM] and 14 mls [6 nM] […] The plates were incubated for 2 hours and then read on an Envision plate reader.

MOLECULE	TARGET UNDER TEST	EC50
Cn1c(=O)c(-c2cnoc2)cc2cc(Nc3nc(N4CCC(CN5CCN(c6ccc7c(c6)C(=O)N(C6CCC(=O)NC6=O)C7=O)CC5)CC4)ncc3Cl)ccc21 (centres unmarked)	UniProt P41182	> 100 nM
CNC(=O)COc1cc2cc(Nc3nc(N4CCC(CN5CCN(c6ccc7c(c6)C(=O)N(C6CCC(=O)NC6=O)C7=O)CC5)CC4)ccc3Cl)ccc2n(C)c1=O (centres unmarked)	UniProt P41182	> 100 nM
CNC(=O)COc1cc2cc(Nc3nc(N4CCN(C(C)(C)C5CCN(c6ccc7c(c6)CN(C6CCC(=O)NC6=O)C7=O)CC5)CC4)ncc3Cl)ccc2n(C)c1=O (centres unmarked)	UniProt P41182	10 to 50 nM
CC(=O)[C@H](C)Oc1cc2cc(Nc3nc(N4CCC(CN5CCN(c6ccc7c(c6)C(=O)N([C@H]6CCC(=O)NC6=O)C7=O)CC5)CC4)ncc3Cl)ccc2n(C)c1=O	UniProt P41182	> 100 nM
CNC(=O)[C@H](C)Oc1cc2cc(Nc3nc(N4CCC(CN5CCN(c6ccc7c(c6)C(=O)N([C@@H]6CCC(=O)NC6=O)C7=O)CC5)CC4)ncc3Cl)ccc2n(C)c1=O	UniProt P41182	> 100 nM

====

# Dmax per record follows
- TARGET UNDER TEST: BCL6 (Homo sapiens (Human))
- PROTOCOL TEXT: Immunofluorescence high content imaging of BCL6 degradation in T47D cells
- Format: cell-based
- CONDITION PARAMETERS: T47D
- Procedure: Immunofluorescence Protocol for High Cotent Imaging of BCL6 T47D cells were seeded in 100 μl volume of RPMI1640-10% FBS in a 96-well black/clear bottom plates for adherent lines (Corning #3904). Day 1. T47D breast cancer epithelial cells were seeded at a density so that confluence is ˜70-90% at endpoint. Cells were seeded at 7K/0.1 ml/well the morning prior to the addition of exemplary bifunctional degradation compounds. Day 2. […] Plates were equilibrated to room temperature prior to reading. […]

COMPOUND	Dmax
CNC(=O)COc1cc2cc(Nc3nc(N4CCN(CCCN5CCN(c6ccc7c(c6)C(=O)N(C6CCC(=O)NC6=O)C7=O)CC5)CC4)ncc3Cl)ccc2n(C)c1=O (stereo not shown)	< 50%
CNC(=O)COc1cc2cc(Nc3nc(N4CCC(OC5CN(C6CCN(c7ccc8c(c7)C(=O)N(C7CCC(=O)NC7=O)C8=O)CC6)C5)CC4)ncc3Cl)ccc2n(C(C)C)c1=O (stereo not shown)	50 to 70%
CC(=O)COc1cc2cc(Nc3nc(N4CCOC(COc5ccc6c(c5)C(=O)N(C5CCC(=O)NC5=O)C6=O)C4)ncc3Cl)ccc2n(C)c1=O (stereo not shown)	50 to 70%
CNC(=O)COc1cc2cc(Nc3nc(N4CCC(CN5[C@H](C)CN(c6ccc(C(=O)NC7CCC(=O)NC7=O)c(F)c6)C[C@@H]5C)CC4)ncc3Cl)ccc2n(C)c1=O (stereo partly shown)	50 to 70%
CNC(=O)COc1cc2cc(Nc3nc(N4CCN(CC5CCC6(CC5)CN(c5c(F)ccc7c5C(=O)N(C5CCC(=O)NC5=O)C7=O)C6)CC4)ncc3Cl)ccc2n(C(C)C)c1=O (stereo not shown)	50 to 70%
CNC(=O)COc1cc2cc(Nc3nc(N4CCC5(CCN(CC6CCN(c7cccc8c7C(=O)N(C7CCC(=O)NC7=O)C8=O)CC6)C5)CC4)ncc3Cl)ccc2n(C(C)C)c1=O (stereo not shown)	≥ 70%
CNC(=O)COc1cc2cc(Nc3nc(N4CCOCC4)ncc3Cl)ccc2n(CCCOc2ccc3c(c2)C(=O)N(C2CCC(=O)NC2=O)C3=O)c1=O (stereo not shown)	< 50%
CNC(=O)COc1cc2cc(Nc3nc(N4CCC5(CN(CC6CCN(c7cccc8c7C(=O)N(C7CCC(=O)NC7=O)C8=O)CC6)C5)C4)ncc3Cl)ccc2n(C(C)C)c1=O (stereo not shown)	≥ 70%
CC(=O)[C@H](C)Oc1cc2cc(Nc3nc(N4CCC(CN5CCN(c6ccc7c(c6)C(=O)N([C@H]6CCC(=O)NC6=O)C7=O)CC5)CC4)ncc3Cl)ccc2n(C)c1=O	< 50%
CNC(=O)COc1cc2cc(Nc3nc(N4CCCC(OC5CCN(c6ccc7c(c6)C(=O)N(C6CCC(=O)NC6=O)C7=O)CC5)CC4)ncc3Cl)ccc2n(C)c1=O (stereo not shown)	< 50%
CC(=O)COc1cc2cc(Nc3nc(N4CCN(C)C(COc5ccc6c(c5)C(=O)N(C5CCC(=O)NC5=O)C6=O)C4)ncc3Cl)ccc2n(C)c1=O (stereo not shown)	50 to 70%
CNC(=O)COc1cc2cc(Nc3nc(N4CCC(CN5CC6(C5)CN(c5cccc7c5C(=O)N(C5CCC(=O)NC5=O)C7=O)C6)CC4)ncc3Cl)ccc2n(C)c1=O (stereo not shown)	50 to 70%
CNC(=O)COc1cc2cc(Nc3nc(N4CCC(CN5CCN(c6ccc7c(c6)C(=O)N(C6CCC(=O)NC6=O)C7=O)CC5=O)CC4)ncc3Cl)ccc2n(C)c1=O (stereo not shown)	50 to 70%

====

- TARGET UNDER TEST: UniProt:P41182
- PROTOCOL TEXT: Immunofluorescence high content imaging of BCL6 degradation in T47D cells
- Type: cell-based
REPORTED METRIC: IC50

MOLECULE	READOUT VALUE
CC(=O)[C@H](C)Oc1cc2cc(Nc3nc(N4CCC(CN5CCN(c6ccc7c(c6)C(=O)N([C@@H]6CCC(=O)NC6=O)C7=O)CC5)CC4)ncc3Cl)ccc2n(C)c1=O	50 to 100 nM
CNC(=O)COc1cc2cc(Nc3nc(N4CCN(CC5CCN(c6ccc7c(c6)C(=O)N(C6CCC(=O)NC6=O)C7=O)CC5)CC4)c(Cl)cc3Cl)ccc2n(C)c1=O (centres unmarked)	≥ 100 nM
CC(=O)COc1cc2cc(Nc3nc(N4CCC(N5CCCC5COc5ccc6c(c5)C(=O)N(C5CCC(=O)NC5=O)C6=O)CC4)ncc3Cl)ccc2n(C)c1=O (centres unmarked)	≥ 100 nM
CNC(=O)COc1cc2cc(Nc3nc(N4CCN(CC5CCN(c6cnc(C(=O)NC7CCC(=O)NC7=O)cn6)CC5)CC4)ncc3Cl)ccc2n(C)c1=O (centres unmarked)	< 10 nM
CNC(=O)COc1cc2cc(Nc3nc(N4CCN(CC5CCN(c6ccc7c(c6)C(=O)N(C6CCC(=O)NC6=O)C7=O)CC5)CC4)c(C#N)cc3Cl)ccc2n(C)c1=O (centres unmarked)	< 10 nM

The origin of these recorded values is patent US12310975B2.
